tested on: AMPK-alpha1; construct: gene PRKAA1; details: concentration: 1 μM, replicates: in singlicate; n = 1;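 note: KINOMEscan kinase panel screen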
We use 10% as the dividing line for %Inh: on or above the line is satisfied, below is not satisfied.

compound | target | label-class
COC(=O)c1c(-c2ccccc2)c2cc(OC)ccc2c(=O)n1Cc1ccccc1 | AMPK-alpha1 | satisfied
COc1ccc(C2=C(Nc3cccc(C(=O)O)c3)C(=O)NC2=O)cc1 [SB-390765] | AMPK-alpha1 | satisfied
Cc1cc(NCC(c2ccccc2)c2ccccc2)nc(NCc2ccc(C(F)(F)F)cc2)n1 [GW497681] | AMPK-alpha1 | not satisfied
COc1cc2ncn(-c3cc(OCC4CCCO4)c(C(N)=O)s3)c2cc1OC (stereo not drawn) [GSK204607] | AMPK-alpha1 | not satisfied
Clc1cc(Cl)cc(Nc2ccnc(Nc3cc(Cl)cc(Cl)c3)n2)c1 [GSK175726] | AMPK-alpha1 | satisfied
Cl.c1ccc(-c2n[nH]cc2-c2ccnc(-c3ccc(CN4CCOCC4)cc3)c2)nc1 [GW776245] | AMPK-alpha1 | not satisfied
Cc1cccc(-c2nc(-c3ccc(S(C)(=O)=O)cc3)sc2-c2ccnc(NCCc3ccccc3)c2)c1 | AMPK-alpha1 | not satisfied
Cc1c(Cn2ccn3c(=O)cc(N4CCOCC4)nc23)cccc1C(F)(F)F [GSK2289044] | AMPK-alpha1 | satisfied
Cc1cccc(-c2nc(Nc3ccc4[nH]ncc4c3)c3ccccc3n2)n1 [GW857175] | AMPK-alpha1 | not satisfied
Cn1ccc2ncnc(Oc3ccc(Nc4nc5ccccc5[nH]4)cc3)c21 | AMPK-alpha1 | not satisfied
O=C(O)COc1ncnc2cc(-c3ccc4[nH]ncc4c3)sc12 | AMPK-alpha1 | satisfied
COc1ccc(Nc2nccc(-c3cccc(NC(=O)c4cc5cc(F)ccc5[nH]4)c3)n2)cc1 [GSK1229782] | AMPK-alpha1 | satisfied
Cl.Oc1ccc(-c2nc(-c3ccccc3)[nH]c2-c2ccncc2)cc1 [SB-428218] | AMPK-alpha1 | not satisfied
CCn1c(-c2cccnc2O)nc2cnccc21 [SB-736715] | AMPK-alpha1 | not satisfied

====

system: ULK1; conditions: concentration: 1 μM, replicates: in singlicate; n = 1
%Inh overview

compound | %Inh
Cc1cccc(-c2nc(C)cc(Nc3ccncc3)n2)n1 [GSK257997] | 0%
O=C(O)COc1ncnc2cc(-c3ccc4[nH]ncc4c3)sc12 | 43%
Fc1cccc(COc2nnc(-c3ccc4c(c3)CCO4)o2)c1 | 0%
Cc1ccc(NC(=O)Nc2cc(C(C)(C)C)nn2-c2ccccc2)cc1 [GSK1014915] | 17%
CN1C(=O)C(Nc2ccc(Cl)c(C(=O)O)c2)=C(c2ccc(Cl)cc2)C1=O [SB-404290] | 2%
CC1=C(C(=O)Nc2cc3cn[nH]c3cc2F)C(c2ccc(C(F)(F)F)cc2)CC(=O)N1 (centres unmarked) [GSK429286] | 0%
Cc1c(Cn2ccn3c(=O)cc(N4CCOCC4)nc23)cccc1C(F)(F)F [GSK2289044] | 7%
COc1ccccc1CNC(=O)c1cc(C(=O)c2ccccc2C)c[nH]1 [GSK364507] | 4%
CC(=O)Nc1nc2cnc(Nc3cc(NC(=O)c4cccc(CCC#N)c4)ccc3C)nc2s1 | 0%
CC(C)(C)c1ccc(C(=O)Nc2cn3cc(-c4cccnc4)ccc3n2)cc1 | 0%
Cc1csc(-c2nc(Nc3ccncc3)c3ccccc3n2)n1 [GW869640] | 33%
Cc1nnc(-c2ccc3occ(-c4ccc(S(C)=O)cc4)c3c2)[nH]1 (centres unmarked) | 4%
CCCc1ccc(S(=O)(=O)NC2CCN(c3ccnc(Nc4ccc(F)cc4)n3)C2)cc1 (centres unmarked) [GSK1379715] | 16%
Cc1cccc(-c2nc(Nc3cccc(C(N)=O)c3)c3ccccc3n2)n1 [GW876019] | 0%
COc1cccc(-c2cc(-c3c[nH]nc3-c3ccccn3)ccn2)c1 [GW680338] | 0%
COc1cc2ncnc(Nc3ccc4nc(-c5ccccc5)[nH]c4c3)c2cc1OC.Cl [GW282450] | 1%
COc1ccc(Nc2nccc(-c3cccc(NC(=O)c4cc5cc(F)ccc5[nH]4)c3)n2)cc1 [GSK1229782] | 16%
COc1ccccc1-c1ccc2c(NC(=O)C3CC3)n[nH]c2n1 [SB-711239] | 63%
COc1cccc(NC(=O)NC2CCN(c3ccnc(Nc4ccc(F)cc4)n3)C2)c1 (centres unmarked) [GSK1379721] | 13%
O=C(Nc1n[nH]c2nc(-c3nccs3)c(Br)cc12)C1CC1 [SB-742251] | 21%
COC(=O)c1c(-c2ccccc2)c2cc(C(=O)O)ccc2c(=O)n1Cc1ccccc1 | 0%
Clc1cc(Cl)cc(Nc2ccnc(Nc3cc(Cl)cc(Cl)c3)n2)c1 [GSK175726] | 0%
COc1ccc2nc(-c3cccc(C)n3)nc(Nc3ccncc3)c2c1 [GSK204919] | 4%
Cl.c1ccc(-c2n[nH]cc2-c2ccnc(-c3ccc(CN4CCOCC4)cc3)c2)nc1 [GW776245] | 0%
O=C(Nc1n[nH]c2nc(-c3nccs3)c(Br)cc12)C1CCCC1 [SB-742609] | 5%
Cc1cccc(-c2cc(Nc3ccncc3)c3ccccc3n2)n1 [GSK223675] | 13%
